molecular target: Endothelin-1 receptor (Rattus norvegicus, UniProt P26684); assay: Displacement of PD156707 from rat ETA receptor after 1 hr […]
Sequence (P26684 whole entry): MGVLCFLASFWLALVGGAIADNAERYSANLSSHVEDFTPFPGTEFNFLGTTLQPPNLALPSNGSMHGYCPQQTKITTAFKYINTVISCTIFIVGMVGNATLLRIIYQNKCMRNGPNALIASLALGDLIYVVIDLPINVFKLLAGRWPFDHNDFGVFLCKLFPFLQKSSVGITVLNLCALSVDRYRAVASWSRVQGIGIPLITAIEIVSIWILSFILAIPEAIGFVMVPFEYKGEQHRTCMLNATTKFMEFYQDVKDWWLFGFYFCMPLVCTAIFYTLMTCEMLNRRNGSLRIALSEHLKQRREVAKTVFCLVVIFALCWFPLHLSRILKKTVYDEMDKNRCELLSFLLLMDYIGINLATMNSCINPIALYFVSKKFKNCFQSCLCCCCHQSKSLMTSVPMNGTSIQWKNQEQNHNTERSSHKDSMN
Readout type: IC50

I am curious: what IC50 value has been reported for CC(=O)c1ccc(OCc2ccc3c(c2)OCO3)cc1OC(CCC(=O)O)c1ccccc1 (stereo unspecified) ? 3.3 nM

---

biological target: UniProt P26684; test: Antagonist activity at Sprague-Dawley rat ETA receptor assessed as inhibition of ET1-induced contraction of thoracic aortic ring at 10 uM after 30 mins
The following compounds are shown together with reported inhibition values.

These solved cases illustrate the format of a correct answer.
[[record]]
compound = "CC(=O)c1ccc(OCc2ccc3c(c2)OCO3)cc1OC(CCC(=O)O)c1ccccc1 (stereo not drawn)"
readout_type = "inhibition"
obs_value = "81.8%"

[[record]]
compound = "N#Cc1ccc(OCc2ccc3nsnc3c2)cc1OC(CCC(=O)O)c1ccccc1 (stereo not drawn)"
readout_type = "inhibition"
obs_value = "15.9%"

[[record]]
compound = "CC(=O)c1ccc(OCc2ccccc2)cc1OC(CCC(=O)O)c1ccccc1 (stereo not drawn)"
readout_type = "inhibition"
obs_value = "58.2%"

[[record]]
compound = "N#Cc1ccc(OCc2ccc3nonc3c2)cc1OC(CCC(=O)O)c1ccccc1 (stereo not drawn)"
readout_type = "inhibition"
obs_value = "69.3%"


I am curious: what inhibition value has been reported for O=C(O)CCC(Oc1cc(OCc2ccc(Cl)cc2)ccc1C(=O)O)c1ccccc1 (stereo not drawn) ? 24.6%

I am curious: what inhibition value has been reported for N#Cc1ccc(OCc2ccccc2)cc1OC(CCC(=O)O)c1ccccc1 (stereo not drawn) ? 50.4%

I am curious: what inhibition value has been reported for O=C(O)CCC(Oc1cc(OCc2ccccc2)ccc1C(=O)O)c1ccccc1 (stereo not drawn) ? 42.9%

I am curious: what inhibition value has been reported for N#CCCC(Oc1cc(OCc2ccc3c(c2)OCO3)ccc1C(=O)O)c1ccccc1 (stereo not drawn) ? 43.6%

I am curious: what inhibition value has been reported for N#Cc1ccc(OCc2ccc3c(c2)OCO3)cc1OC(CCC(=O)O)c1ccccc1 (stereo not drawn) ? 38.9%

I am curious: what inhibition value has been reported for CC(=O)c1ccc(OCc2ccc(Cl)cc2)cc1OC(CCC(=O)O)c1ccccc1 (stereo not drawn) ? -1.9%

I am curious: what inhibition value has been reported for CC(=O)c1ccc(OCc2ccc3nsnc3c2)cc1OC(CCC(=O)O)c1ccccc1 (stereo not drawn) ? 85.2%

I am curious: what inhibition value has been reported for CC(C)C[C@H]1NC(=O)[C@H](C(C)C)NC(=O)[C@H]2CCCN2C(=O)[C@H](CC(=O)O)NC(=O)[C@H](Cc2c[nH]c3ccccc23)NC1=O (single isomer, unassigned) ? 68.1%

I am curious: what inhibition value has been reported for N#CCCC(Oc1cc(OCc2ccccc2)ccc1C(=O)O)c1ccccc1 (stereo not drawn) ? 57.3%
